experimental.system: T1, human BCMA with a His tag (ACROBiosystems, Catalog No.: BCA-H522y) (human)
T1 construct: Bought His-tagged recombinant protein; also called huBCMA-His; Recombinant human BCMA
T1 chain: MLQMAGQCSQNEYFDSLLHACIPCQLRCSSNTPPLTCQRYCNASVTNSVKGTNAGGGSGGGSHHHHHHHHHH
assay: SPR, Biacore T200
Is koff at least 0.01 s⁻¹? Then true (1). If not, false (0).

Would you please look over these solved cases?
{"columns": ["binder", "label.value"],
 "data": [
  ["SCT-Aa04(m/m) (antibody, V domains shown, Full IgG format: mouse IgG1 heavy chain constant region, mouse kappa light chain constant region) VH: EVKLLQSGGGLVQPGGSLKLSCAASGIDFSRYWMSWVRRAPGKGLEWIGEINPDSSTINYAPSLKDKFIISRDNAKNTLYLQMSKVRSEDTALYYCASFYYDYDRGAAMDYWGQGTSVTVSS VL: DIVMTQSQKFMSTSVGDRVSVTCKASQNVGTNVAWYQQKPGQSPKALIYSASYRYSGVPDRFTGSGSGTDFTLTISNVQSEDLAEYFCQQYNSYPYTFGGGTKLEIK", "true (1)"],
  ["SCT-Aa13(h/h) (antibody, V domains shown, Full IgG format, chimeric: human IgG1 heavy chain constant region, human kappa light chain constant region) VH: QVQLQQSDAELVKPGASVKISCKVSGYTFTDYTIHWMKQRPEQGLEWIGYIYPRDGSTKYNEKFKGKATLTADKSSSTAYMQLNSLTSEDSAVYFCARWDYEGFDYWGQGTTLTVSS VL: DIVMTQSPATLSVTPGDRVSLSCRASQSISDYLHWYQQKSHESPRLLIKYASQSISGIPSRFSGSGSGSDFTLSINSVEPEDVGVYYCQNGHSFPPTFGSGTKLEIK", "true (1)"],
  ["SCT-Aa15(h/h) (antibody, V domains shown, Full IgG format, chimeric: human IgG1 heavy chain constant region, human kappa light chain constant region) VH: QVQLQQSDAELVKPGPSVKISCKVSGSTFTDHTVHWMKQRPEQGLEWIGYVYPRDGSTRYNEKFKGKATLTADKSSSTAYMQLNSLTSEDSAVYFCARWDYEGFDYWGQGTTLTVSS VL: DIVMTQSPATLSVTPGDRVSLSCRASQNISDYLHWYQQKSHESPRLLIKYASQSISGIPSRFSGSGSGSDFTLSINSVEPEDVGVYYCQNGHSFPPTFGSGTKLKIK", "false (0)"],
  ["SCT-Aa13(m/m) (antibody, V domains shown, Full IgG format: mouse IgG1 heavy chain constant region, mouse kappa light chain constant region) VH: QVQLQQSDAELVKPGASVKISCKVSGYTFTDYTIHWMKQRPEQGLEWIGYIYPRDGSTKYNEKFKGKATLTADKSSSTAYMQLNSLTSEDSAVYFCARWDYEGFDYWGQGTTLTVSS VL: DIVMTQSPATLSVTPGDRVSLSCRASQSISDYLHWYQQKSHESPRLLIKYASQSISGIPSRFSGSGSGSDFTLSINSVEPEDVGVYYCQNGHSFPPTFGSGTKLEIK", "true (1)"],
  ["SCT-Aa10(h/h) (antibody, V domains shown, Full IgG format, chimeric: human IgG1 heavy chain constant region, human kappa light chain constant region) VH: QVQLQQSDAELVKPGASVKISCKVSGYTFTDHTIHWMKQRPEQGLEWIGYIFPRDGNTKYNEKFKGKATMTADKSSSTAYMQLNSLTSEDSAVYFCARWDYEGFDCWGQGTTLTVSS VL: DIVMTQSPATLSVTPGDRVSLSCRASQSISDYLHWYQQKSHESPRLLIKYASQSISGIPSRFSGSGSGSDFTLSINSVEPEDVGVYFCQNGHSFPPTFGSGTKLEIK", "true (1)"]
]}

koff >= 0.01 s⁻¹ for SCT-Aa06(m/m) (antibody, V domains shown, Full IgG format: mouse IgG1 heavy chain constant region, mouse kappa light chain constant region) VH: EVQLQQSGPELVKPGNSVKISCKASGYSFTGYFMNWVMQSHGKSLEWIGRINPYNGDTFYNQKFKGKATLTVDKSSSTAHMELRSLTSEDSAVYYCARLDYTNYNSYPMDYWGQGTSVTVSS VL: DIQMTHTTSSLSASLGDRVTISCSASQGISNYLNWYLQKPDGTVKLLIYYTSNLHSGVPSRFSGSGSGTDFSLTISNLQPEDIATYYCQQYSKFPWTFGGGTKLEIK ?
true (1)

Also SCT-Aa01(m/m) (antibody, V domains shown, Full IgG format: mouse IgG1 heavy chain constant region, mouse kappa light chain constant region) VH: DVQLQESGPGLVKPSQSLSLTCSVTGYSITSGYYWNWIRQFPGNKLEWMGYIRYDGSNNYNPSLKNRISITRDTSKNQFFLKLNSVTTEDTATYYCAPYDYDYAMDFWGQGTSVTVSS VL: DIQMTQSPASLSASVGETVTITCRASGNIHNYLAWYQQKQGKSPQLLVYNAKTLAHGVPSRFSGSGSGTQYSLKITSLQPEDFGTYYCQHFWSTPFTFGSGTKLEIK , if possible.
true (1)

Also SCT-Aa19(h/h) (antibody, V domains shown, Full IgG format, chimeric: human IgG1 heavy chain constant region, human kappa light chain constant region) VH: QVQLQQSGPELVKPGASVRISCKASGCTFTDYYIHWVKQRPGQGLEWIGWIYPGNLNSKFNEKFRDKATLTADNSSSTAYMQLSSLTSEDSAVYFCARYNYEGYFDYWGQGTTLTVSS VL: DIVMTQSPATLSVTPGDRVSLSCRASQSIADSLHWYQQKSHESPRLLIKYASHSISGIPSRFRGSGSGSDFTLSINSVEPEDVGVYYCQNGHSFPLTFGAGTKLELK , if possible.
false (0)

Also SCT-Aa02(m/m) (antibody, V domains shown, Full IgG format: mouse IgG1 heavy chain constant region, mouse kappa light chain constant region) VH: EVKLLQSGGGLVQPGGSLKLSCAASGIDFSRYWMSWVRRAPGKGLEWIGEINPDSSTINSAPSLEDKFIISRDNAKNTLYLQMSKVRSEDTALYYCASLYYDYERDYAMDYWGQGASVTVSS VL: DIVMTQSQKFMSTSVGDRVSVTCKASQNVGTNVAWYQQKPGQSPKALIYSASYRFSGVPDRFTGSGSGTDFTLTISNVQSEDLAEYFCQQYHSYPFTFGGGTKLEIK , if possible.
false (0)

Also SCT-Aa08(m/m) (antibody, V domains shown, Full IgG format: mouse IgG1 heavy chain constant region, mouse kappa light chain constant region) VH: QVQLQQSDAELVKPGASVKISCKVSGYTFIDHTIHWMKQRPEQGLEWIGYIYPRIDSSKCNEKFKDKATLTADKSSNTAYIQLNSLTSEDSAVYFCARWDYEGFDYWGQGTTLTVSS VL: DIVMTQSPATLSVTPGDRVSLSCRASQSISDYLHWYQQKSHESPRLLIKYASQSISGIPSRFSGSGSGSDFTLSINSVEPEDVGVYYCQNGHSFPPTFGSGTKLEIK , if possible.
true (1)
